assay name: qHTS assay to identify small molecule antagonists of the thyroid receptor (TR) signaling pathway - cell viability counter screen (AID 743064); further: nearly all actives have a fitted effect of over 50% in size; further: potency means the concentration at half of the fitted maximal effect
measurement parameters: GH3.TRE-Luc viability, CellTiter-Fluor, 24 h; series mostly up to 70.3 µM
Records with an inconclusive call do not appear. The source made the active and inactive calls. The call rests on the fitted dose curve; in most records, active means well fitted cell-killing curve with a large enough effect in the repeat runs; inconclusive means weak or mixed curves, or effect the other way; inactive means no such curve, though single readings can be large or run the other way.
measured property: Potency

{"columns": ["compound", "Potency"],
 "data": [
  ["Cc1nnc2n1-c1ccc(Cl)cc1C(c1ccccc1Cl)=NC2", "inactive"],
  ["Cc1nnc2n1-c1sc(Br)cc1C(c1ccccc1Cl)=NC2", "21.1 µM (active)"],
  ["CC(=O)Oc1ccc2c3c1O[C@H]1[C@@H](OC(C)=O)C=C[C@H]4[C@@H](C2)N(C)CC[C@@]341", "inactive"],
  ["C[C@@H]1[C@H](O)[C@@H](C)/C=C/C=C/CC/C=C/C=C/C=C/C=C/[C@H](O[C@H]2O[C@@H](C)[C@H](O)[C@@H](N)[C@H]2O)CC2O[C@](O)(C[C@@H](O)[C@H](O)CC[C@@H](O)C[C@@H](O)C[C@@H](O)CC(=O)O[C@H]1C)C[C@H](O)[C@H]2C(=O)O", "inactive"],
  ["CCCC(C)C1(CC)C(=O)NC(=O)NC1=O (stereo unspecified)", "inactive"]
]}

Go through the list and state Potency for each entry.
1. CN[C@@]1(c2ccccc2Cl)CCCCC1=O
2. N#CC1(N2CCCCC2)CCCCC1

inactive
inactive

Go through the list and state Potency for each entry.
1. O.O.O.O=C([O-])C(O)C(O)C(=O)[O-].O=C([O-])C(O)C(O)C(=O)[O-].[K+].[K+].[Sb].[Sb] (stereo unspecified)
2. CCCC(=O)OC(C(Cl)(Cl)Cl)P(=O)(OC)OC (stereo unspecified)
3. CNC(C)CC1CCCCC1 (stereo unspecified)
4. CN1[C@H]2CC[C@@H]1[C@@H](C(=O)O)[C@@H](OC(=O)c1ccccc1)C2

1: 29.8 µM (active); 2: inactive; 3: inactive; 4: inactive
